# Tested On: CaM N-domain fragment, residues 1 to 80 (CaM_(1–80)) (mammalian (no species named), UniProt P0DP23 2-81)
# Assay Info: fluorescence polarisation
Catalogue of binders with associated Kd
State the answer as a number, implicitly in µM.

[[record]]
binder = "{5,6‑carboxyfluorescein}-SRYGLLIKAFSMTAAETARRTREFR-NH2 [Fl–hRyR1(1975–1999)p: hRyR1(1975–1999)p with a 5,6-carboxyfluorescein moiety at the N-terminus]"
metric = "Kd"
measured_number = 12.5


**Query** Please report the recorded Kd for {5,6‑carboxyfluorescein}-KSKKAVWHKLLSKQRRRAVVACFRMTPLYN-NH2 [Fl–hRyR1(3614–3643)p: hRyR1(3614–3643)p with a 5,6-carboxyfluorescein moiety at the N-terminus] .
**Result** 2.5
